molecular target: Tyrosine-protein kinase ABL1 (Homo sapiens); experiment: Inhibition of ABL (unknown origin) at 30 uM by microfluidic assay relative to control
quantity.kind: inhibition (%)

Illustrative cases are given below, each with its answer.
INSERT INTO assay_data (structure_smiles, quantity_kind, result_unit, endpoint_result) VALUES
  ('Cc1[nH]c(-c2ccccc2)c(-c2ccccc2)c1C(=O)c1cn(-c2ccccc2)nc1C(=O)Nc1ccccc1', 'inhibition', '%', 32),
  ('Cc1[nH]c(-c2ccccc2)c(-c2ccccc2)c1C(=O)c1coc2ccc(O)cc12', 'inhibition', '%', 3);

A = CC(=O)c1nn(-c2ccccc2)cc1C(=O)c1c(C)[nH]c(-c2ccccc2)c1-c1ccccc1
B = Cc1[nH]c(-c2ccccc2)c(-c2ccccc2)c1C(=O)c1coc2c1cc(O)c1ccccc12
C = Cc1[nH]c(-c2ccccc2)c(-c2ccccc2)c1-c1nnc(C)c2nn(-c3ccccc3)cc12
Could you please order the items by inhibition, going from the lowest number to the highest? Answer format: the labels, in the requested order.
C, A, B

====

target: Mitogen-activated protein kinase 3 (Homo sapiens); assay: Inhibition of Erk1 (unknown origin) at 30 uM by microfluidic assay relative to control
quantity.kind: inhibition (%)

Reference set, count: 3
INSERT INTO assay_data (structure_smiles, quantity_kind, endpoint_result) VALUES
  ('Cc1[nH]c(-c2ccccc2)c(-c2ccccc2)c1-c1ccc(NC(=O)c2ccccc2)c(=O)o1', 'inhibition', 5),
  ('Cc1[nH]c(-c2ccccc2)c(-c2ccccc2)c1C(=O)c1cn(-c2ccccc2)nc1C(=O)Nc1ccccc1', 'inhibition', 8),
  ('Cc1[nH]c(-c2ccccc2)c(-c2ccccc2)c1-c1nnc(O)c2nn(-c3ccccc3)cc12', 'inhibition', 8);

P = Cc1[nH]c(-c2ccccc2)c(-c2ccccc2)c1-c1nnc(C)c2nn(-c3ccccc3)cc12
Q = Cc1[nH]c(-c2ccccc2)c(-c2ccccc2)c1C(=O)c1coc2ccc(O)cc12
Endpoint returns whichever of P and Q has the numerically higher inhibition. Answer by quoting the chosen item's label.
P

====

target: Protein kinase C (PKC) (Homo sapiens) (UniProt O94806+P41743+P17252+P05129+Q05655+P05771+Q05513+Q02156+P24723+Q15139+Q04759); experiment: Inhibition of PKC (unknown origin) at 30 uM by microfluidic assay relative to control
quantity.kind: inhibition (%)

The following molecules have reported results that may help.
INSERT INTO assay_data (structure_smiles, endpoint_result) VALUES
  ('Cc1[nH]c(-c2ccccc2)c(-c2ccccc2)c1C(=O)c1cn(-c2ccccc2)nc1-c1ccccc1', 67),
  ('Cc1[nH]c(-c2ccccc2)c(-c2ccccc2)c1-c1nnc(C)c2nn(-c3ccccc3)cc12', 13);

I = CCOC(=O)c1nn(-c2ccccc2)cc1C(=O)c1c(C)[nH]c(-c2ccccc2)c1-c1ccccc1
II = Cc1[nH]c(-c2ccccc2)c(-c2ccccc2)c1C(=O)c1coc2c1cc(O)c1ccccc12
Name the one with the greater inhibition value, either I or II as given. Selection: enter the item's label.
II

1 = Cc1[nH]c(-c2ccccc2)c(-c2ccccc2)c1C(=O)c1coc2ccc(O)cc12
2 = Cc1[nH]c(-c2ccccc2)c(-c2ccccc2)c1-c1nnc(O)c2nn(-c3ccccc3)cc12
# return whichever of 1 and 2 has the smaller inhibition Could you answer with the label of the item you picked?
1

a = Cc1[nH]c(-c2ccccc2)c(-c2ccccc2)c1C(=O)c1cn(-c2ccccc2)nc1C(=O)Nc1ccccc1
b = Cc1[nH]c(-c2ccccc2)c(-c2ccccc2)c1-c1ccc(NC(=O)c2ccccc2)c(=O)o1
Among a and b , whose measured inhibition is the smaller figure? Reply with the label of the item you choose.
a
(a: 44%, b: 65%)

====

target: Tyrosine-protein kinase Fyn (Homo sapiens); assay: Inhibition of FYN (unknown origin) at 30 uM by microfluidic assay relative to control
quantity.kind: inhibition (%)

INSERT INTO assay_data (structure_smiles, endpoint_result) VALUES
  ('Cc1[nH]c(-c2ccccc2)c(-c2ccccc2)c1-c1nnc(C)c2nn(-c3ccccc3)cc12', 12),
  ('CCOC(=O)c1nn(-c2ccccc2)cc1C(=O)c1c(C)[nH]c(-c2ccccc2)c1-c1ccccc1', 21),
  ('Cc1[nH]c(-c2ccccc2)c(-c2ccccc2)c1C(=O)c1cn(-c2ccccc2)nc1-c1ccccc1', 21);

P = Cc1[nH]c(-c2ccccc2)c(-c2ccccc2)c1C(=O)c1cn(-c2ccccc2)nc1C(=O)Nc1ccccc1
Q = CC(=O)c1nn(-c2ccccc2)cc1C(=O)c1c(C)[nH]c(-c2ccccc2)c1-c1ccccc1
R = Cc1[nH]c(-c2ccccc2)c(-c2ccccc2)c1-c1nnc(O)c2nn(-c3ccccc3)cc12
hey, can you rank those compounds up there by inhibition? biggest number first please // format: requested-order list of labels
P, R, Q
(P: 21%, R: 12%, Q: 2%)

====

target: Serine/threonine-protein kinase Chk1 (Homo sapiens) (UniProt O14757); experiment: Inhibition of CHK1 (unknown origin) at 30 uM by microfluidic assay relative to control
Sequence (O14757 whole entry): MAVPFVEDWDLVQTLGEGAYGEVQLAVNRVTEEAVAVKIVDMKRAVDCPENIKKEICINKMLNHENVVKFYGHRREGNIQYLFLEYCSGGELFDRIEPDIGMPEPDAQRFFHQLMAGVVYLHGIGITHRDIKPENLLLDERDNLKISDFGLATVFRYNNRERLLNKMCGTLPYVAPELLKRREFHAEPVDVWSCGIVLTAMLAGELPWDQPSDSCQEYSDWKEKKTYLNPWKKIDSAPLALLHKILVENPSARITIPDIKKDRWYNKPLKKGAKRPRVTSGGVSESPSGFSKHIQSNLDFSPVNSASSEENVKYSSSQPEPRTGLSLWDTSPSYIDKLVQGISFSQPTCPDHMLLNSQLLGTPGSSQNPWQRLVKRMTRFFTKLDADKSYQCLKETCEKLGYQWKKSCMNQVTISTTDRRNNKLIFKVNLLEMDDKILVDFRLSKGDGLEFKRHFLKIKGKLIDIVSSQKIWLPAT
quantity.kind: inhibition (%)

INSERT INTO measurements (structure_smiles, target_or_test_system, endpoint_result) VALUES
  ('CCOC(=O)c1nn(-c2ccccc2)cc1C(=O)c1c(C)[nH]c(-c2ccccc2)c1-c1ccccc1', 'Serine/threonine-protein kinase Chk1 (Homo sapiens) (UniProt O14757)', 85),
  ('Cc1[nH]c(-c2ccccc2)c(-c2ccccc2)c1C(=O)c1cn(-c2ccccc2)nc1C(=O)Nc1ccccc1', 'Serine/threonine-protein kinase Chk1 (Homo sapiens) (UniProt O14757)', 80),
  ('Cc1[nH]c(-c2ccccc2)c(-c2ccccc2)c1-c1nnc(C)c2nn(-c3ccccc3)cc12', 'Serine/threonine-protein kinase Chk1 (Homo sapiens) (UniProt O14757)', 83),
  ('Cc1[nH]c(-c2ccccc2)c(-c2ccccc2)c1-c1nnc(O)c2nn(-c3ccccc3)cc12', 'Serine/threonine-protein kinase Chk1 (Homo sapiens) (UniProt O14757)', 84),
  ('CC(=O)c1nn(-c2ccccc2)cc1C(=O)c1c(C)[nH]c(-c2ccccc2)c1-c1ccccc1', 'Serine/threonine-protein kinase Chk1 (Homo sapiens) (UniProt O14757)', 100),
  ('Cc1[nH]c(-c2ccccc2)c(-c2ccccc2)c1C(=O)c1cn(-c2ccccc2)nc1-c1ccccc1', 'Serine/threonine-protein kinase Chk1 (Homo sapiens) (UniProt O14757)', 78),
  ('Cc1[nH]c(-c2ccccc2)c(-c2ccccc2)c1C(=O)c1coc2c1cc(O)c1ccccc12', 'Serine/threonine-protein kinase Chk1 (Homo sapiens) (UniProt O14757)', 96),
  ('Cc1[nH]c(-c2ccccc2)c(-c2ccccc2)c1C(=O)c1coc2ccc(O)cc12', 'Serine/threonine-protein kinase Chk1 (Homo sapiens) (UniProt O14757)', 90),
  ('Cc1[nH]c(-c2ccccc2)c(-c2ccccc2)c1-c1ccc(NC(=O)c2ccccc2)c(=O)o1', 'Serine/threonine-protein kinase Chk1 (Homo sapiens) (UniProt O14757)', 80);

====

molecular target: Mitogen-activated protein kinase 1 (Homo sapiens) (UniProt P28482); assay: Inhibition of Erk2 (unknown origin) at 30 uM by microfluidic assay relative to control
Sequence (P28482 whole entry): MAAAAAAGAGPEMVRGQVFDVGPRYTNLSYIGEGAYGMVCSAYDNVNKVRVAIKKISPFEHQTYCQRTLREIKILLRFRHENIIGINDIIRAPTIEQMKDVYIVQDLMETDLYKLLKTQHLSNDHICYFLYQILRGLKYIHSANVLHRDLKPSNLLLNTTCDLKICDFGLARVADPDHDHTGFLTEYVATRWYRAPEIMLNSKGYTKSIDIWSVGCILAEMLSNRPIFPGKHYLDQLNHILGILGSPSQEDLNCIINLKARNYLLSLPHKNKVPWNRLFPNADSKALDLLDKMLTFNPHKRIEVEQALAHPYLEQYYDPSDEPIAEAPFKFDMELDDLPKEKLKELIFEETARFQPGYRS
quantity.kind: inhibition (%)

INSERT INTO measurements (structure_smiles, result_unit, endpoint_result) VALUES
  ('Cc1[nH]c(-c2ccccc2)c(-c2ccccc2)c1-c1nnc(O)c2nn(-c3ccccc3)cc12', '%', 23),
  ('CC(=O)c1nn(-c2ccccc2)cc1C(=O)c1c(C)[nH]c(-c2ccccc2)c1-c1ccccc1', '%', 21),
  ('Cc1[nH]c(-c2ccccc2)c(-c2ccccc2)c1-c1ccc(NC(=O)c2ccccc2)c(=O)o1', '%', 4);

A = Cc1[nH]c(-c2ccccc2)c(-c2ccccc2)c1C(=O)c1coc2c1cc(O)c1ccccc12
B = Cc1[nH]c(-c2ccccc2)c(-c2ccccc2)c1C(=O)c1cn(-c2ccccc2)nc1-c1ccccc1
Just tell me: smaller inhibition value, A or B ? Please indicate the selected item by its label.
A

====

molecular target: Hepatocyte growth factor receptor (Homo sapiens) (UniProt P08581); experiment: Inhibition of MET (unknown origin) at 30 uM by microfluidic assay relative to control
Sequence (P08581 whole entry): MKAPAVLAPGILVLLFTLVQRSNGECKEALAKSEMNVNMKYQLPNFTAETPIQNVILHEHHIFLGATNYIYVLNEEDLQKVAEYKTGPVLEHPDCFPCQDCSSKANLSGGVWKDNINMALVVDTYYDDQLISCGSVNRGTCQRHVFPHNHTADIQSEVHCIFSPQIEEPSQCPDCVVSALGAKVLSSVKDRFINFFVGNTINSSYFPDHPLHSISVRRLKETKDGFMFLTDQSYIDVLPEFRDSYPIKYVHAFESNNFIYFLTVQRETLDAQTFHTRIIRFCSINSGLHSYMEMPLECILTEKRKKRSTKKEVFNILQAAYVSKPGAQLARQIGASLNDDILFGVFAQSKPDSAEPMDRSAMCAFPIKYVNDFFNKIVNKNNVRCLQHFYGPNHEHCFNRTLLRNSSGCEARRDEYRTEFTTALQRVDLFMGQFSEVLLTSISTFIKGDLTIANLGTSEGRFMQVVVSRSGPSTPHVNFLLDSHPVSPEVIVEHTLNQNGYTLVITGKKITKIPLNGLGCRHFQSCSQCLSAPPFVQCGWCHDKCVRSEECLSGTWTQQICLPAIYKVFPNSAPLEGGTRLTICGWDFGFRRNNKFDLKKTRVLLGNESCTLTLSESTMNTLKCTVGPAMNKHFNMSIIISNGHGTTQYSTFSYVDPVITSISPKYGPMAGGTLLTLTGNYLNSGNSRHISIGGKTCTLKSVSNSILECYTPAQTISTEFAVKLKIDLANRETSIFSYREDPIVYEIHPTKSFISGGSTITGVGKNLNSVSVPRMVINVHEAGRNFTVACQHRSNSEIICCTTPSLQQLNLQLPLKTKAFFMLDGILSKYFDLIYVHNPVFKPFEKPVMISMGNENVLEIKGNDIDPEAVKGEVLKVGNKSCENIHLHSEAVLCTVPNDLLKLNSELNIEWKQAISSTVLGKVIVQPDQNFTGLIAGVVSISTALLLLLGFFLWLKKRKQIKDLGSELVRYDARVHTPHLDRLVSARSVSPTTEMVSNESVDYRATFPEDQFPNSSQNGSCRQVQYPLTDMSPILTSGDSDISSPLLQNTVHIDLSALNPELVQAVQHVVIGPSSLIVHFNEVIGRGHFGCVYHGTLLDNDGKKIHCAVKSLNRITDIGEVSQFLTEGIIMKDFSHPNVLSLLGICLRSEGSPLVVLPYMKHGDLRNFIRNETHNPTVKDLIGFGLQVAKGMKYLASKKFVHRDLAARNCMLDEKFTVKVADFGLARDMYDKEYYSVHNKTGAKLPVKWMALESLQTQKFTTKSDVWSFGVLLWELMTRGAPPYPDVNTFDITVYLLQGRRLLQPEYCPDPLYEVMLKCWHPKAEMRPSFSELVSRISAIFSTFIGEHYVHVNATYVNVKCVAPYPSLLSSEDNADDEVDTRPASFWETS
quantity.kind: inhibition (%)

Examples with their reported inhibition follow.
INSERT INTO results (structure_smiles, target_or_test_system, endpoint_result) VALUES
  ('Cc1[nH]c(-c2ccccc2)c(-c2ccccc2)c1-c1ccc(NC(=O)c2ccccc2)c(=O)o1', 'Hepatocyte growth factor receptor (Homo sapiens) (UniProt P08581)', 22),
  ('Cc1[nH]c(-c2ccccc2)c(-c2ccccc2)c1-c1nnc(C)c2nn(-c3ccccc3)cc12', 'Hepatocyte growth factor receptor (Homo sapiens) (UniProt P08581)', 5);

P = Cc1[nH]c(-c2ccccc2)c(-c2ccccc2)c1C(=O)c1cn(-c2ccccc2)nc1-c1ccccc1
Q = Cc1[nH]c(-c2ccccc2)c(-c2ccccc2)c1C(=O)c1cn(-c2ccccc2)nc1C(=O)Nc1ccccc1
Form: Entry with minimum inhibition (choose one): P / Q # reply format: chosen label
Q
